For each entry below, report its pIC50 value.
API: returns pIC50 as number; meaning -log10 of concentration in mol/L.

For the compound CCc1c(C)c2c(c(O)c1C/C=C(\C)CN(C)CCP(=O)(O)O)C(=O)OC2 , the measured pIC50 on Inosine-5'-monophosphate dehydrogenase 2 (Homo sapiens) was 6.88

# pIC50 measured on Inosine-5'-monophosphate dehydrogenase 2 (Homo sapiens) for item CCc1c(C)c2c(c(O)c1C/C=C(\C)CNCCP(=O)(O)O)C(=O)OC2 = 7.89

For COc1c(C)c2c(c(O)c1C/C=C(\C)CP(=O)(OC)OC)C(=O)OC2 on Inosine-5'-monophosphate dehydrogenase 2 (Homo sapiens), measured pIC50 was 6.54

Test item CCc1c(C)c2c(c(O)c1C/C=C(\C)COCP(=O)(O)O)C(=O)OC2 ; Inosine-5'-monophosphate dehydrogenase 2 (Homo sapiens); reported pIC50 was 7.64

Record COc1c(C)c2c(c(O)c1C/C=C(\C)CN(C=O)CCP(=O)(O)O)C(=O)OC2 ; system Inosine-5'-monophosphate dehydrogenase 2 (Homo sapiens); pIC50 = 6.13
